System: 565232-114-T-J1-PDC complex spheroid viability;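 also: spheroids exposed to compounds for 7 days before readout; 100% = DMSO vehicle wells with luminescence normalized to vehicle control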
Test: Anticancer human tumor 565232-114-T-J1-PDC patient-derived bladder carcinoma cell line growth inhibition [CLK]
Conditions: second compound 3.16 µM; first compound 0.0316 µM; stronger effect = lower value
# viability, T/C listing for each entry below

# Molecule, viability, T/C, %
data = [
    ("CC(CO)NC(=O)c1cc(-c2ccc(Cl)cc2)nn(-c2cnn(C)c2)c1=O (stereo not drawn) + CNC(=O)c1ccc(Nc2nc(OC3CCCC3)c3c(-c4ccc5nc(C)oc5c4)c[nH]c3n2)c(OC)c1", 17.5),
    ("CCN1CCN(Cc2ccc(Nc3ncc(F)c(-c4cc(F)c5nc(C)n(C(C)C)c5c4)n3)nc2)CC1 + CNC(=O)c1ccc(Nc2nc(OC3CCCC3)c3c(-c4ccc5nc(C)oc5c4)c[nH]c3n2)c(OC)c1", 25),
    ("CC1COCCN1c1cc(C2(S(C)(=N)=O)CC2)nc(-c2ccnc3[nH]ccc23)n1 (stereo not drawn) + CNC(=O)c1ccc(Nc2nc(OC3CCCC3)c3c(-c4ccc5nc(C)oc5c4)c[nH]c3n2)c(OC)c1", 19.1),
]
